# System: HCC 2998
# assayOverview: NCI tumour cell line growth inhibition, 48 h
Activity calls are given as the source filed them. No stated cut-off is given here; in the data, active = GI50 up to about 1.1 µM and inactive = higher.
quantityName: GI50

1. CC(C)CCCC(C)[C@H]1CC[C@H]2[C@@H]3CC[C@H]4C[C@@H](CCC=C(c5cc(Cl)c(O)c(C(=O)O)c5)c5cc(Cl)c(O)c(C(=O)O)c5)CC[C@]4(C)[C@H]3CC[C@]12C (stereo partly drawn) : > 50 µM (inactive)
2. CC[C@@H]1ON(C)[C@H]2CN(C)C(=O)[C@@H]12 : > 100 µM (inactive)
3. CC(=O)NC1C(OCc2ccccc2)OC(CO)C(O)C1OC(C)C(=O)NC(C(=O)N[C@@H](CCC(=O)NCCNCCNc1c2ccccc2nc2cccc([N+](=O)[O-])c12)C(N)=O)C(C)C (stereo partly drawn) : 21 µM (inactive)
4. CC(C)=CCC/C(C)=C/C=C/C(C)=C/C=C/C(C)=C/C=C/C=C(C)/C=C/C=C(C)/C=C/[C@H]1C(C(C)(C)O)CC[C@]1(C)O (stereo partly drawn) : 15.5 µM (inactive)
5. CCOC(=O)c1cc(-c2ccc(OC)c(OC)c2)cn1C : > 10 µM (inactive)
6. Cc1ccc(S(=O)OCc2c(C)c(C)c(COS(=O)c3ccc(C)cc3)c(C)c2C)cc1 (stereo not drawn) : > 100 µM (inactive)
7. CC(=O)OCC1OC(SC2OC(COC(C)=O)C(OC(C)=O)C(OC(C)=O)C2OC(C)=O)C(OC(C)=O)C(OC(C)=O)C1OC(C)=O (stereo not drawn) : > 100 µM (inactive)
8. O=C1NCCCC12CCCNC2=O : > 100 µM (inactive)

---

# Tested on: MDA-MB-231
# assayOverview: NCI tumour cell line growth inhibition, 48 h
Active and inactive are the calls of the source. Cut-off read from the data, not from the text of the source: active = GI50 up to about 1.1 µM and inactive = higher.
Classes used: active, inactive

1. Cc1cn(CCCCC2=NCCCN2)c(=O)[nH]c1=O : inactive
2. CCOc1ccc(C(c2c(O)c3ccccc3oc2=O)c2c(O)c3ccccc3oc2=O)cc1 : inactive
3. Cc1ccc(S(=O)(=O)CC2CCCn3c2c(C#N)c2ccccc23)cc1 (centres undefined) : inactive
4. O=c1c(-c2ccc(O)cc2)coc2cc(OC3OC(CO)C(O)C(O)C3O)cc(O)c12 (centres undefined) : inactive
5. COc1ccc(NC(C)=O)cc1N1C(=O)/C(=C\c2cc(OC)c(OC)c(OC)c2)S(=O)(=O)C1c1ccccc1 (centres undefined) : inactive
6. COC(=O)C1=C(C)NC(=S)NC1c1ccc(N(CCCl)CCCl)cc1Cl (centres undefined) : inactive
7. COc1cc(OCc2ccccc2)c2c(CCC(=O)O)cc(=O)oc2c1.COc1cc(OCc2ccccc2)cc2oc(=O)cc(CCC(=O)O)c12 : inactive
8. O=C1OCc2c1cc1cc3c(cc1c2-c1ccc2c(c1)OCO2)OCO3.O=C1OCc2cc3cc4c(cc3c(-c3ccc5c(c3)OCO5)c21)OCO4 : inactive
9. COc1ccc(-n2nnc(C(N)=O)c2O)cc1 : inactive
10. CCCSc1ccc2[nH]c(N3C(=O)/C(=C/c4ccc(SC)cc4)N=C3c3ccccc3)cc2c1 : inactive
11. C/C(=N/NC(=S)Nc1ccccc1Cl)c1ccccn1 : active
12. CCc1cc(Cc2cc(CC)c(NC(=O)C(=O)CC(=O)c3sc(-c4cccnc4)nc3C)c(CC)c2)cc(CC)c1NC(=O)C(=O)CC(=O)c1sc(-c2cccnc2)nc1C : inactive
13. O=c1c2cc([N+](=O)[O-])ccc2nc2n1CCCCC2 : inactive
14. COc1ccc(-c2oc3ccccc3c(=O)c2O)cc1OC [3-HYDROXY-3',4'-DIMETHOXYFLAVONE] : inactive
15. O=C(CN1CCOCC1)NC1=Nc2ncccc2C(=O)NN1 : inactive
16. Cc1ccc(-c2nc(N/N=C/c3ccc(O)cc3)c3ccccc3n2)cc1 : inactive
17. O=C(CC(O)(C(F)(F)F)C(F)(F)F)C(c1ccccc1)C(O)(C(F)(F)F)C(F)(F)F (centres undefined) : inactive
18. CCOC(=O)[C@@H]1[C@@H](c2ccccc2)N(C)O[C@@]1(c1ccccc1)C(F)(F)F : inactive
19. Cc1nc2c(O)nc3ccccc3c2o1 : inactive

---

# Test system: SK-MEL-28
# assayOverview: NCI tumour cell line growth inhibition, 48 h
Calls of active or inactive are those of the source. No stated cut-off is given here; in the data, active = GI50 up to about 1.1 µM and inactive = higher.
Consider the following compounds and their measured GI50 readings.
quantityName: GI50

1. Nc1nc(Cl)c(N)c(NCC2(CO)CCCC2)n1 : > 100 µM (inactive)
2. CN1CCN(CN2C(=O)C3C4C=CC(C3C2=O)C2C3C(=O)N(CN5CCN(C)CC5)C(=O)C3C42)CC1 (centres undefined) : 23.5 µM (inactive)
3. COc1cc(OC)c(OC)cc1/C=N/NC(=O)N/N=C/c1cc(OC)c(OC)cc1OC : > 100 µM (inactive)
4. Cc1nc2c(O)nc3ccccc3c2o1 : > 100 µM (inactive)
5. CCc1cc(Cc2cc(CC)c(NC(=O)C(=O)CC(=O)c3sc(-c4cccnc4)nc3C)c(CC)c2)cc(CC)c1NC(=O)C(=O)CC(=O)c1sc(-c2cccnc2)nc1C : > 100 µM (inactive)
6. CN(CCN(C)C(=S)NN)C(=S)NN : > 100 µM (inactive)
7. O=C(N/C(=C\c1cc(Cl)ccc1Cl)c1nc2ccccc2[nH]1)c1ccccc1 : 45.3 µM (inactive)
8. COc1ccc(C2c3cc4c(cc3OC(N3CCOCC3)C2C)OCO4)c(OC)c1OC (centres undefined) : 14.2 µM (inactive)
9. CC(=O)NC1C(OCc2ccccc2)OC(CO)C(O)C1OC(C)C(=O)NC(C(=O)N[C@@H](CCC(=O)NCCNCCNc1c2ccccc2nc2cccc([N+](=O)[O-])c12)C(N)=O)C(C)C (some centres undefined) : 41.4 µM (inactive)

---

# Test system: IGROV-1
# assayOverview: NCI tumour cell line growth inhibition, 48 h
The source made the active and inactive calls. No stated cut-off is given here; in the data, active = GI50 up to about 1.1 µM and inactive = higher.
Outcomes: active, inactive

1) O=C(CC(O)(C(F)(F)F)C(F)(F)F)C(c1ccccc1)C(O)(C(F)(F)F)C(F)(F)F (stereo not given) : inactive
2) O=[N+]([O-])C(/C=N/Nc1ccccc1)/C=N/Nc1ccccc1 : inactive
3) Cc1ccc(NC(=O)c2cc3ccccc3c(/N=N/c3cc(S(=O)(=O)O)ccc3O)c2O)c(C)c1 : inactive
4) CC(C)/C(Cl)=N\OC(NC(=O)P(=O)(c1ccccc1)c1ccccc1)(C(F)(F)F)C(F)(F)F : inactive
5) CN(N=O)C(=O)N(N)CCCCC(NC(=O)OCc1ccccc1)C(=O)OCc1ccccc1 (stereo not given) : inactive
6) BrC(Br)=C1C(=C(Br)Br)C(Br)C1Br (stereo not given) : active
7) CC(=O)Oc1cc2c(cc1OC(C)=O)C1(C)CCC2(C)c2cc(OC(C)=O)c(OC(C)=O)cc21 : inactive
8) CC(Oc1ccccc1Cl)C(=O)NN1C(=O)CSC1c1ccccc1 (stereo not given) : inactive
9) ClC[Si]12OCCN(CCO1)CCO2 : inactive
10) COc1cccc(-c2ccc3c4c2O[C@H]2C(=O)CC[C@@]5(O)[C@@H](C3)N(CC3CC3)CC[C@]425)c1 : inactive

---

# Tested on: CCRF-CEM
# assayOverview: NCI tumour cell line growth inhibition, 48 h
Activity calls are given as the source filed them. Rule as the data show it: active = GI50 up to about 1.1 µM and inactive = higher.
In this section we review reported GI50 values for a set of compounds.
quantityName: GI50

1) CCC(=O)C12OC3OC(C)(C)OC3C1OC(C)(C)O2 (stereo unspecified) : > 100 µM (inactive)
2) CCCSc1ccc2[nH]c(N3C(=O)/C(=C/c4ccc(SC)cc4)N=C3c3ccccc3)cc2c1 : 13.5 µM (inactive)
3) COc1ccc(/C=C2\CCC(C)(CN(C)C)C2=O)cc1OC (stereo unspecified) : > 100 µM (inactive)
4) COP(=O)(CC(=O)C1OC(C)(C)OC1C(O)COCc1ccccc1)OC (stereo unspecified) : > 100 µM (inactive)
5) O=C(Nc1cccc(F)c1)c1cc2ccc(O)cc2o/c1=N\c1cccc(F)c1 : 2.22 µM (inactive)
6) CC(Oc1ccccc1Cl)C(=O)NN1C(=O)CSC1c1ccccc1 (stereo unspecified) : > 100 µM (inactive)

---

Each entry below carries its reported GI50.
# Test system: HOP-62
# assayOverview: NCI tumour cell line growth inhibition, 48 h
Activity calls are given as the source filed them. Rule as the data show it: active = GI50 up to about 1.1 µM and inactive = higher.
quantityName: GI50

1. COc1ccc(NC(C)=O)cc1N1C(=O)/C(=C\c2cc(OC)c(OC)c(OC)c2)S(=O)(=O)C1c1ccccc1 (stereo not given) : 78.2 µM (inactive)
2. Cc1n[nH]c(=O)n1N=C(c1ccccc1)c1ccccc1 : > 100 µM (inactive)
3. C#CCOC(=O)C(N)CCCNC(=N)N (stereo not given) : > 100 µM (inactive)
4. Cc1c(Cl)cccc1NC(=O)C(=O)C(C(=O)c1ccccc1-c1ccccc1)C1OC(=O)c2ccccc21 (stereo not given) : 16.3 µM (inactive)
5. CC(O)CN1c2ccccc2Sc2ccc(Cl)cc21 (stereo not given) : > 10 µM (inactive)
6. Cc1ccc(NC(=O)c2cc3ccccc3c(/N=N/c3cc(S(=O)(=O)O)ccc3O)c2O)c(C)c1 : 13.1 µM (inactive)
7. Cn1c(=O)nc2n(-c3cc(Cl)ccc3Cl)c3ccccc3nc-2c1=O : 12 µM (inactive)
8. C[P+](C)(CC(F)(F)F)c1ccccc1 : > 100 µM (inactive)
9. CCCNC(=O)N1CC(CN2CCN(c3ccccc3)CC2)O/C1=N/C(=O)Nc1ccccc1 (stereo not given) : > 100 µM (inactive)
10. COc1ccc(C2c3cc4c(cc3OC(N3CCOCC3)C2C)OCO4)c(OC)c1OC (stereo not given) : 26.9 µM (inactive)
11. CCOC(=O)[C@@H]1[C@@H](c2ccccc2)N(C)O[C@@]1(c1ccccc1)C(F)(F)F : > 100 µM (inactive)
12. Cc1ccc(S(=O)(=O)NN=C2C(C)(C)CC2(C)C)cc1 : > 100 µM (inactive)
13. Cc1nc2ccccc2c(=O)n1NC(=S)Nc1ccc(Cl)cc1[N+](=O)[O-] : > 100 µM (inactive)
14. NS(=O)(=O)c1ccc(NNc2c3ccccc3nc3c(C(=O)Nc4ccc(S(N)(=O)=O)cc4)cccc23)cc1 : 57.3 µM (inactive)
15. Cc1cc2c(cc1C)[n+]([O-])c(C(=O)N1CCN(c3ccc([N+](=O)[O-])cc3)CC1)c(C)[n+]2[O-] : 12.8 µM (inactive)
16. O=C(Nc1ccccc1)c1cc(S(=O)(=O)NC2=Nc3ccc(Cl)cc3C(c3ccccc3)N2)c(SSc2cc(Cl)c(C(=O)Nc3ccccc3)cc2S(=O)(=O)NC2=Nc3ccc(Cl)cc3C(c3ccccc3)N2)cc1Cl (stereo not given) : > 80.5 µM (inactive)
17. CC(C)(C)CNCCCNc1ccc(Cl)cc1 : 97.1 µM (inactive)
18. CC1=C(C(=O)NCc2ccccc2)C(c2ccccc2O)C(C(=O)NCc2ccccc2)=C(C)N1 : 19.9 µM (inactive)
19. c1ncn(C23C4C5C6C4C2C6C53)n1 (stereo not given) : > 100 µM (inactive)
20. N#Cc1nc(C#N)n(S(=O)(=O)c2ccccc2)c1NS(=O)(=O)c1ccccc1 : > 100 µM (inactive)
